Source listed as paper doi:10.1101/2024.08.19.608619.

# Test system: iPSC pneumocytes
# METHOD SUMMARY: iPSC pneumocytes cytotoxicity
# Format: cell-based
# CONDITION DESCRIPTION: protocol iPSC pneumocytes cytotoxicity
QUANTITY: cc10

Worked cases, answers included:
MOLECULE	cc10
Cn1ncc(-c2cc3c(N[C@@H](c4ccc5c(c4)OCCO5)C(C)(C)C)ncnc3[nH]2)c1C#N (racemic)	41.767 µM
CC(C)[C@@H](Nc1ncnc2[nH]c(-c3cnn(C)c3C#N)cc12)c1ccc2c(c1)OCCO2 (racemic)	13.408 µM

Q: State its cc10 on iPSC pneumocytes: Cc1ncc(-c2cc3c(N[C@@H](c4ccc5c(c4)OCCO5)C(C)C)ncnc3[nH]2)cn1
A: > 50.0 µM

Q: Please provide the recorded cc10 for CC(C)[C@@H](Nc1ncnc2[nH]c(C(N)=O)cc12)c1ccc2c(c1)OCCO2 , tested on iPSC pneumocytes.
A: > 50.0 µM

Q: Enter reported cc10 observed with iPSC pneumocytes for CC(C)C(Nc1ncnc2[nH]ccc12)c1ccc2c(c1)NC(=O)CO2 (centres unmarked)
A: > 50.0 µM

Q: Requested read-out cc10, target or system iPSC pneumocytes, entry CC(C)[C@@H](Nc1ncnc2[nH]c(-c3cnn(CC(N)=O)c3)cc12)c1ccc2c(c1)OCCO2
A: > 50.0 µM

Q: Which measured cc10 belongs to CC(C)C(Nc1ncnc2[nH]ccc12)c1ccc2c(c1)S(=O)(=O)CCC2 (centres unmarked) , tested on iPSC pneumocytes?
A: > 50.0 µM

Q: Requested read-out cc10, target or system iPSC pneumocytes, entry CNC(=O)c1cc2c(N[C@@H](c3ccc4c(c3)OCCO4)C(C)C)ncnc2[nH]1
A: > 50.0 µM
